Dmax reference
- SUBJECT OF TEST: HiBiT tagged GSPT1 (Homo sapiens, UniProt P15170+Q96SW2)
- Sequence (P15170 whole entry): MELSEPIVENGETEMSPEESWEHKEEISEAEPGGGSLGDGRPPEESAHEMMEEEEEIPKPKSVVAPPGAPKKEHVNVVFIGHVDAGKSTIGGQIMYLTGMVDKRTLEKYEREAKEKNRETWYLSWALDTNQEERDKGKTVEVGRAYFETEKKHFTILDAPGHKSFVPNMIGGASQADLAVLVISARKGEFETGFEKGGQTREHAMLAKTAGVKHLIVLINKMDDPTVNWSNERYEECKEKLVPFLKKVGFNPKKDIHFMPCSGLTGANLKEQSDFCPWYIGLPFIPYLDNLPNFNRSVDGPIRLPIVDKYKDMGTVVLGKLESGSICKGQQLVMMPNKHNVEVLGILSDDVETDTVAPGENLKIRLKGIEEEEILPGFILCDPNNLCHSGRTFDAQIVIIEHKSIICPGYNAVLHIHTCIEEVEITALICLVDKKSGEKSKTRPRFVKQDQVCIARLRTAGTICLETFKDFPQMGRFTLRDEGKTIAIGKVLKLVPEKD
- Sequence (Q96SW2 whole entry): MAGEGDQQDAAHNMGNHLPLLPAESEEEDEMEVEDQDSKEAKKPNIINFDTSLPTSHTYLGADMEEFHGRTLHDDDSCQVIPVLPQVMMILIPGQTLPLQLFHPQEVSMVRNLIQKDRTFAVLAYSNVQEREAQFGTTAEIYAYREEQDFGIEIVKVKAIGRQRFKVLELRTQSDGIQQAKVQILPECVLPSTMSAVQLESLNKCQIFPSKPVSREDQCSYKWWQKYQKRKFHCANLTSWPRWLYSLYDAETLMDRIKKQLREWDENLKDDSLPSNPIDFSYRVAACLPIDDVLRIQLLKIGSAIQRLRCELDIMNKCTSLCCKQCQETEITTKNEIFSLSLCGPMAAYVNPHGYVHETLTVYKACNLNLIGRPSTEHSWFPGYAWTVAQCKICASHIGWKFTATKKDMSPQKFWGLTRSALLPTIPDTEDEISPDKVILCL
- Sequence (Q16531 whole entry partner): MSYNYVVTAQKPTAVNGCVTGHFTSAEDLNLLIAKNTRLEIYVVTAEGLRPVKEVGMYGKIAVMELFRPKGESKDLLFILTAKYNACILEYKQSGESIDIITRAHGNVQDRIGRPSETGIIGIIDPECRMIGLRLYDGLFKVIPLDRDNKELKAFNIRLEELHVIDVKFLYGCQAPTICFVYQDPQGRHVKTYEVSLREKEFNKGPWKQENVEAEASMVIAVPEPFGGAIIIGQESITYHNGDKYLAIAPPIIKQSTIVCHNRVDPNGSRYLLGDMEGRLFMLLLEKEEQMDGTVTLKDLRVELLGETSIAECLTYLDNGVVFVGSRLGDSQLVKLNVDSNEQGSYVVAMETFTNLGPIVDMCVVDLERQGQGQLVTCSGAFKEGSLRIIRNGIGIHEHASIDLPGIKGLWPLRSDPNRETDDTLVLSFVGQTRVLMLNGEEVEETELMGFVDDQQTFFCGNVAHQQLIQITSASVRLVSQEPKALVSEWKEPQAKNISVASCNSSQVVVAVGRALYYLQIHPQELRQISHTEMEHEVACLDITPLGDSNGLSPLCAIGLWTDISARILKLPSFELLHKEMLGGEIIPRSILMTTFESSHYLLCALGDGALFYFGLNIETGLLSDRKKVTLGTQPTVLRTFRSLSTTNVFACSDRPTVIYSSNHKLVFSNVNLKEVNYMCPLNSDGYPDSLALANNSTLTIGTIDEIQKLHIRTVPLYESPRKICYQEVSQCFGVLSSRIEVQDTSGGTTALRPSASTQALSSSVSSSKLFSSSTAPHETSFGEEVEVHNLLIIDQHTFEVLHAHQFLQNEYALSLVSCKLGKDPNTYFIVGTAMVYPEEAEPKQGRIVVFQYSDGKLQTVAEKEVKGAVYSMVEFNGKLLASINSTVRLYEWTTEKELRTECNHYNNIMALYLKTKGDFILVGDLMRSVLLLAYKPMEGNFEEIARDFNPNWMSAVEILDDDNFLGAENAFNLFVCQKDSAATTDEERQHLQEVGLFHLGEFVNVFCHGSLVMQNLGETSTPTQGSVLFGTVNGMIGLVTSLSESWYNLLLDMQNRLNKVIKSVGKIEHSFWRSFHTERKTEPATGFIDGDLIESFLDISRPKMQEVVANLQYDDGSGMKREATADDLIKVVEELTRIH
- RUN DESCRIPTION: GSPT1 degradation assay (HiBiT assay)
- Type: cell-based
- CONDITION SUMMARY: HT-1080, HT-1080 cells, 20 hours; maximum GSPT1 degradation
PROPERTY NAME: Dmax (%)

{"columns": ["MOLECULE", "READOUT VALUE"],
 "data": [
  ["O=C1CCC(N2Cc3cc(C(=O)N[C@@H](c4c(F)cccc4F)C4CCC4)ccc3C2=O)C(=O)N1 (stereo in doubt)", 55.3],
  ["O=C1CC[C@H](N2Cc3cc(C(=O)N[C@H](c4ccc(F)cc4)C4CCCC4)ccc3C2=O)C(=O)N1 (racemic)", 27.4],
  ["O=C1CCC(N2Cc3cc(C(=O)N[C@H](c4ncc(Cl)cc4Cl)C4CCC4)ccc3C2=O)C(=O)N1 (stereo in doubt)", 20.4],
  ["O=C1CCC(N2Cc3cc(C(=O)N[C@H](c4ccc(F)cn4)C4CCC4)ccc3C2=O)C(=O)N1 (stereo in doubt)", 14.4],
  ["O=C1CCC(N2Cc3cc(C(=O)N[C@H](c4ccc(Cl)cc4)C4CC4)ccc3C2=O)C(=O)N1 (stereo in doubt)", 73.1],
  ["O=C1CCC(N2Cc3cc(C(=O)NC(c4ccc(Cl)cc4F)C4CC4)ccc3C2=O)C(=O)N1 (stereo not shown)", 45.5],
  ["COc1cccc([C@H](NC(=O)c2ccc3c(c2)CN(C2CCC(=O)NC2=O)C3=O)C2CC2)c1 (stereo in doubt)", 60],
  ["O=C1CCC(N2Cc3cc(C(=O)N[C@H](c4cccc(C(F)(F)F)c4)C4CC4)ccc3C2=O)C(=O)N1 (stereo in doubt)", 25.8],
  ["O=C1CCC(N2Cc3cc(C(=O)NC(c4ccc(F)cc4F)C4CC4)ccc3C2=O)C(=O)N1 (stereo not shown)", 37],
  ["O=C1CCC(N2Cc3cc(C(=O)N[C@H](c4ncccc4Cl)C4CCC4)ccc3C2=O)C(=O)N1 (stereo in doubt)", 58.5],
  ["Cc1ccccc1[C@@H](NC(=O)c1ccc2c(c1)CN(C1CCC(=O)NC1=O)C2=O)C1CC1 (stereo in doubt)", 32.5],
  ["Cc1cccc([C@@H](NC(=O)c2ccc3c(c2)CN(C2CCC(=O)NC2=O)C3=O)C2CC2)c1 (stereo in doubt)", 62.1],
  ["O=C1CCC(N2Cc3cc(C(=O)N[C@H](c4ccc(F)cc4F)C4CCC4)ccc3C2=O)C(=O)N1 (stereo in doubt)", 24.9],
  ["O=C1CCC(N2Cc3cc(C(=O)N[C@H](c4ccc(F)cc4)C4COC4)ccc3C2=O)C(=O)N1 (stereo in doubt)", 16.5],
  ["O=C1CC[C@@H](N2Cc3cc(C(=O)N[C@H](c4ccc(F)cc4Cl)C4CCC4)ccc3C2=O)C(=O)N1 (racemic)", 42.7],
  ["O=C1CCC(N2Cc3cc(C(=O)N[C@H](c4ncc(Cl)cc4F)C4CCC4)ccc3C2=O)C(=O)N1 (stereo in doubt)", 14.2]
]}

Every entry's value here was drawn from patent US12673936B2.
